src = patent US20180282402A1

Measured Kd values are reported for all entries that follow.
# experimental.system: T1, Mouse HARS (mouse, UniProt Q61035 1-509, limits assumed)
# T1 construct: also called mouse HRS
# T1 sequence: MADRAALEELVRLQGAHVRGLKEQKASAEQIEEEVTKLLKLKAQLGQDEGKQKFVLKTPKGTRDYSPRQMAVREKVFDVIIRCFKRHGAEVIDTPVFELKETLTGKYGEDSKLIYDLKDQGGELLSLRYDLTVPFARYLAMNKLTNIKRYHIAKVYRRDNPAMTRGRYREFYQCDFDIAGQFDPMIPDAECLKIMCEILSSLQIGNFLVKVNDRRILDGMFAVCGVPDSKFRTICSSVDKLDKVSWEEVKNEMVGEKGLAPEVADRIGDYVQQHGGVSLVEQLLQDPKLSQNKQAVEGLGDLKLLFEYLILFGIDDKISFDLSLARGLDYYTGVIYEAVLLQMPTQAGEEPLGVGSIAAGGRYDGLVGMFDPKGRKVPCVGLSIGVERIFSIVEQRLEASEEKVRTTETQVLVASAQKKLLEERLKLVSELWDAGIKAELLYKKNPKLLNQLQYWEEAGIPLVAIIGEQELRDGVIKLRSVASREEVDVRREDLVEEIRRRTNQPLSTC
# protocol: SPR (ProteOn); HRS protein immobilized, antibody as analyte
# unit: nM | format: bare number

Guide cases for Kd, answers given:
>  <binder>
AB04-168 (antibody, IgG4, V domains shown, Human; IgG4-2 kappa) VH: QVQLVESGGGLVKPGGSLRLSCAASGFTFSDYYMTWIRQAPGKGLEWVSYISGSFRYTNYADKVKGRFTISRDNAKNSLYLQMNSLRDEDTAVYFCARYVYQVVAIGDLWGQGTLVTVSS VL: DIQMTQSPSSVSASVGDRVTITCRASQGISSWLAWYQQKPGRAPKLLIFAASSLQSGVPSRFSGSGSGTHFTLTISSLQPEDFATYYCQQAESFPYTFGQGTKLEIK

>  <Kd, nM>
0.145

$$$$
>  <binder>
AB04-439 (antibody, V domains shown, Human; IgG1m(zf) kappa) VH: QVQLVESGGGLVKPGGSLRLSCAASGFTFSDYYMTWIRQAPGKGLEWVSYISGSFRYTNYADSVKGRFTISRDNAKNSLYLQMNSLRDEDTAVYFCARYVYQVVAIGDLWGQGTLVTVSS VL: DIQMTQSPSSVSASVGDRVTITCRASQGISSWLAWYQQKPGRAPKLLIFAASSLQSGVPSRFSGSGSGTHFTLTISSLQPEDFATYYCQQAESFPYTFGQGTKLEIK

>  <Kd, nM>
0.13

$$$$
>  <binder>
KL31-356 (antibody, IgG4, V domains shown, Humanized; IgG4-2 kappa) VH: QVQLVQSGAEVKKPGASVKVSCKASGYTFTDYCIGWIRQAPGQGLEWMGDICPGDTYTNDNEKFKDRATMTADTSTSTAYMELSSLRSEDTAVYYCARGEEQLGLRNAMDYWGQGTLVTVSS VL: DIVMTQSPDSLAVSLGERATINCQSQSVSTSTYNYMHWYQQKPGQPPKLLIKYASNLESGVPDRFSGSGSGTDFTLTISSLQAEDVATYYCQHSWEIPWTFGGGTKVEIK

>  <Kd, nM>
1.4

$$$$

Req: Query (binder): KL31-241 (antibody, V domains shown, Humanized; IgG1m(zf) kappa) VH: QVQLVQSGAEVKKPGASVKVSCKASGYTFTDYCIGWIRQAPGQGLEWMGDICPGDAYTNDNEKFKDRATMTADTSTSTAYMELSSLRSEDTAVYYCARGEEQLGLRNAMDYWGQGTSVTVSS VL: DIVMTQSPDSLAVSLGERATINCQSQSVSTSTYNYMHWYQQKPGQPPKLLIKYASNLESGVPDRFSGSGSGTDFTLTISSLQAEDVATYYCQHSWEIPWTFGGGTKLEIK ; field requested: Kd
Resp: 5.1
